All values here come from PubChem BioAssay (Tox21).

Assay: A CellTox Green Cytotoxicity Assay to monitor cytotoxicity in HEK293 cells - 24 hour (AID 1224875); also: nearly all actives have a fitted effect of over 45% in size
Settings: CellTox Green fluorescence; series mostly up to 76.8 µM
Inconclusive results are not listed. The source made the active and inactive calls. Calls follow the shape of the dose curve; as a rule, active = well fitted activation curve with a large enough effect in the repeat runs; inconclusive = weak or mixed curves; inactive = flat fitted curve, though single readings scatter.
Answer with one of the outcomes given here: yes for active, no for inactive

Answered examples (2):
compound	class
COc1nn(C(=O)NS(=O)(=O)c2ccccc2OC(F)(F)F)c(=O)n1C	yes
CC(C)(C)c1cc([N+](=O)[O-])cc([N+](=O)[O-])c1O	no

*Q* Hey, what did the test say about ClCCCCBr ?
*A* no

*Q* Hey, what did the test say about OCCCBr ?
*A* no

*Q* Hey, what did the test say about C=CC(=O)OCC(C)C ?
*A* no

*Q* Hey, what did the test say about CCCN(CC1CC1)c1c([N+](=O)[O-])cc(C(F)(F)F)cc1[N+](=O)[O-] ?
*A* no

*Q* Hey, what did the test say about CC(C)(OO)c1ccccc1 ?
*A* no

*Q* Hey, what did the test say about COC(=O)C(C)N(C(=O)Cc1ccccc1)c1c(C)cccc1C (configuration not stated) ?
*A* no

*Q* Hey, what did the test say about CC(C)=CCOc1c2occc2cc2ccc(=O)oc12 ?
*A* no

*Q* Hey, what did the test say about CC(C)(Cl)[N+](=O)[O-] ?
*A* no

*Q* Hey, what did the test say about NNC(=O)c1cccnc1 ?
*A* no

*Q* Hey, what did the test say about CC[C@H]1C[C@H]2[C@@H]3CCC4=CC(=O)CC[C@@H]4[C@H]3CC[C@]2(C)[C@H]1O ?
*A* no
